Reported Ratio Ki is given for each of the following molecules.
assay_remarks: Selectivity ratio of Ki for mouse delta opioid receptor to Ki for guinea pig kappa opioid receptor

- molecule: "O=C(Nc1ccccc1)C1=CCC23CCN(CC4CC4)CC2(C1)Cc1ccc(O)cc13 (stereo not drawn)"
  endpoint_label: "Ratio Ki"
  reading: 4.11
- molecule: "O=C(NCc1ccccc1)C1=CCC23CCN(CC4CC4)CC2(C1)Cc1ccc(O)cc13 (stereo not drawn)"
  endpoint_label: "Ratio Ki"
  reading: 4.1

The molecule identified as CN(C(=O)CCc1ccccc1)[C@@H]1CCC23Cc4ccc(O)cc4C2(CCN(CC2CC2)C3)C1 (stereo partly drawn) registered its Ratio Ki at 3.98

###

In this section, each of the molecules is paired with its reported Ki.
system_under_test: UniProtKB P42866
Sequence (P42866 whole entry): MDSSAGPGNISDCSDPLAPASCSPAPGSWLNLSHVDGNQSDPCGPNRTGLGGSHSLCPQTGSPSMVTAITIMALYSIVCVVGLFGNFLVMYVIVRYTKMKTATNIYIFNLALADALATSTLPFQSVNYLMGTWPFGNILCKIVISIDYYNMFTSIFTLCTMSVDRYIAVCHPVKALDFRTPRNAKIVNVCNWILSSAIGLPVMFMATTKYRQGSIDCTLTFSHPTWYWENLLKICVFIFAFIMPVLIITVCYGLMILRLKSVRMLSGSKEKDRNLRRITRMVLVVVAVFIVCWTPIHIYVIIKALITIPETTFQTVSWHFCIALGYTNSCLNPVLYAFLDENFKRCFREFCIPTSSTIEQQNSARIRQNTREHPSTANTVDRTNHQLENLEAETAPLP
assay_remarks: Displacement of [3H]DAMGO from mu opioid receptor in mouse whole brain without cerebellum
Number in nM, nothing else.

Completed entries (count: 2):
- molecule: "O=C(NCCc1ccccc1)[C@@H]1CCC23CCN(CC4CC4)CC2(Cc2ccc(O)cc23)C1 (some centres undefined)"
  reading: 54.1
- molecule: "CN(C(=O)CCc1ccccc1)[C@H]1CCC23Cc4ccc(O)cc4C2(CCN(CC2CC2)C3)C1 (some centres undefined)"
  reading: 1.23

Looking up CN(C(=O)/C=C/c1ccoc1)[C@@H]1CCC23Cc4ccc(O)cc4C2(CCN(CC2CC2)C3)C1 (some centres undefined) , I found its Ki recorded as 12.2

Just so you know, measured Ki for O=C(NCc1ccccc1)[C@H]1CCC23CCN(CC4CC4)CC2(Cc2ccc(O)cc23)C1 (some centres undefined) came out at 112

###

system_under_test: Delta-type opioid receptor (Mus musculus)
Sequence (P32300 whole entry, looked up): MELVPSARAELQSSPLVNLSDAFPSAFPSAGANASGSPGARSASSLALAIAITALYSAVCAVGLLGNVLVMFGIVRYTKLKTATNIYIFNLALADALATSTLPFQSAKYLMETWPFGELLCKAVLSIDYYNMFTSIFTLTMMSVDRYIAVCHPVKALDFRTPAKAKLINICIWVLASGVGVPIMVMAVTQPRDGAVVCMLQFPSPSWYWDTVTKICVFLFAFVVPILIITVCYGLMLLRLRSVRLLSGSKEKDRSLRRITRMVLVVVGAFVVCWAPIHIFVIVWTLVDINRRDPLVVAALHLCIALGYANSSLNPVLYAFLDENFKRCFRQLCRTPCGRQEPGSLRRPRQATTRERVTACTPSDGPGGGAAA
assay_remarks: Displacement of [3H]DPDPE from delta opioid receptor in mouse whole brain without cerebellum
Quick reference: Ki of the listed items.
Entry rule: numbers only, all in µM.

- compound: "O=C(Nc1ccccc1)[C@H]1CCC23CCN(CC4CC4)CC2(Cc2ccc(O)cc23)C1 (stereo partly drawn)"
  reading: 0.207
- compound: "CN(C(=O)CCc1ccccc1)[C@@H]1CCC23Cc4ccc(O)cc4C2(CCN(CC2CC2)C3)C1 (stereo partly drawn)"
  reading: 0.0652
- compound: "O=C(Nc1ccccc1)[C@@H]1CCC23CCN(CC4CC4)CC2(Cc2ccc(O)cc23)C1 (stereo partly drawn)"
  reading: 0.282

Attention now shifts to the item below.
The compound listed as O=C(NCc1ccccc1)C1=CCC23CCN(CC4CC4)CC2(C1)Cc1ccc(O)cc13 (stereo not drawn) shows Ki equal to 0.298

###

system_under_test: Delta-type opioid receptor (Mus musculus)
assay_remarks: Displacement of [3H]DPDPE from delta opioid receptor in mouse whole brain without cerebellum
endpoint_label: Ki

- compound: "O=C(NCc1ccccc1)[C@@H]1CCC23CCN(CC4CC4)CC2(Cc2ccc(O)cc23)C1 (some centres undefined)"
  Ki: "> 1000 nM"
- compound: "O=C(NCCc1ccccc1)[C@H]1CCC23CCN(CC4CC4)CC2(Cc2ccc(O)cc23)C1 (some centres undefined)"
  Ki: "> 1000 nM"
- compound: "O=C(NCCc1ccccc1)[C@@H]1CCC23CCN(CC4CC4)CC2(Cc2ccc(O)cc23)C1 (some centres undefined)"
  Ki: "> 1000 nM"

Could you now consider this next compound?
Briefly, Ki measured for O=C(NCc1ccccc1)[C@H]1CCC23CCN(CC4CC4)CC2(Cc2ccc(O)cc23)C1 (some centres undefined) : > 1000 nM
